# measured.on: CD4 (UniProt P01730 P01730:26-396)
# protocol.summary: competition; ID50, oligo with immobilized CD4
# stated.conditions: tags: immobilized, gp120 capture ELISA kit
In this section, each of the binders is paired with its reported IC50.
reported.property: IC50 (µM)

- GTTGGGGGTTGTTGGTGGGGTGGTGG (ssDNA, all PS) [I100-12]: 0.475
- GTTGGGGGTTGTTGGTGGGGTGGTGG (ssDNA, phosphodiester) [I100-00]: 18
